The measurements presented in this section are drawn from patent US12415770B2.

Target: LRH-1 LBD (Homo sapiens, UniProt O00482)
Construct: LRH-1 LBD (residues 299-541) in the pMSC7 vector was expressed in BL21 (DE3) pLysS E. coli; made in house; host or cells: E. coli BL21 (DE3) pLysS
Sequence (O00482 299-541): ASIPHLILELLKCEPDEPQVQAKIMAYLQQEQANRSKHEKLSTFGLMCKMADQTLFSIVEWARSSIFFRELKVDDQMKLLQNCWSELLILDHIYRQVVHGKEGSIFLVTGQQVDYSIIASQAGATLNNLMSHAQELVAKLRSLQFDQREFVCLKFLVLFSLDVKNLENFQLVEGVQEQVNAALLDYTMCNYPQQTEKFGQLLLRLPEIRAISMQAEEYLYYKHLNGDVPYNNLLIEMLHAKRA
Assay: Thermofluor (DSF) assay, purified LRH-1 LBD-His protein
Assay type: binding
Conditions: 50 μM compound; relative to DLPC-bound LRH-1; read-out: ΔTm (mean +/− SEM) (° C.)
The compounds listed here are annotated with their ΔTm at 50 µM.
Measured Property: ΔTm at 50 µM (°C)

C=C(c1ccccc1)[C@@]12CC[C@@H](O)[C@@H]1CC(CCCCCCCC(=O)O)=C2c1ccccc1 (relative stereo) [Compound 9f]    4.4
C=C(c1ccccc1)[C@@]12CC[C@H](NC(N)=O)C1CC(CCCCCC)=C2c1ccccc1 (stereo partly drawn) [Compound 36-endo]    1.1
CCCCCCC1=C(c2ccccc2)[C@]2(C(C)c3ccccc3)CC[C@@H](O)C2C1 (stereo partly drawn) [Compound 39-exo]    0.1
C=C(c1ccccc1)C12CCC(O)C1CC(CCCCCO)=C2c1ccccc1 (stereo not shown) [Compound 6e]    2.4
C=C(c1ccccc1)[C@@]12CC[C@@H](O)[C@@H]1CC(CCCCCCCCO)=C2c1ccccc1 (relative stereo) [Compound 9e]    4
C=C(c1ccccc1)C12CCC(O)C1CC(CCCCCCCOP(=O)([O-])OCC[N+](C)(C)C)=C2c1ccccc1 (stereo not shown) [Compound 8g]    2.9
C=C(c1ccccc1)C12CCC(O)C1CC(CCCC(=O)O)=C2c1ccccc1 (stereo not shown) [Compound 5f]    2.3
C=C(c1ccccc1)[C@@]12CC[C@H](OS(C)(=O)=O)C1CC(CCCCCC)=C2c1ccccc1 (stereo partly drawn) [Compound 30-endo]    3
C=C(c1ccccc1)C12CCC(O)C1CC(CCCCCCCCCCCO)=C2c1ccccc1 (stereo not shown) [Compound 12e]    4.7
C=C(c1ccccc1)[C@@]12CC[C@@H](O)[C@@H]1CC(CCCCO)=C2c1ccccc1 (relative stereo) [Compound 5e]    3.1
C=C(c1ccccc1)C12CCC(CN)C1CC(CCCCCC)=C2c1ccccc1 (stereo not drawn) [Compound 48-endo]    0
CCCCCCC1=C(c2ccccc2)[C@]2(C(C)c3ccccc3)CC[C@H](O)C2C1 (stereo partly drawn) [Compound 39-endo]    0.4
C=C(c1ccccc1)C12CCC(O)C1CC(CCCCC(=O)O)=C2c1ccccc1 (stereo not shown) [Compound 6f]    1.3
C=C(c1ccccc1)C12CCC(O)C1CC(CCCCCCCCCCCOP(=O)([O-])OCC[N+](C)(C)C)=C2c1ccccc1 (stereo not shown) [Compound 12g]    -1.7
C=C(c1ccccc1)[C@@]12CC[C@@H](O)[C@@H]1CC(CCCCCCCCC(=O)O)=C2c1ccccc1 (relative stereo) [Compound 10f]    3
C=C(c1ccccc1)C12CCC(O)C1CC(CCCCCCCCCO)=C2c1ccccc1 (stereo not shown) [Compound 10e]    4.1
C=C(c1ccccc1)[C@@]12CC[C@@H](O)C1CC(CCCCCC)=C2c1cc(N)cc(F)c1 (mixture of isomers) [Compound 18g]    1.5
C=C(c1ccccc1)[C@@]12CC[C@@H](OS(N)(=O)=O)C1CC(CCCCCC)=C2c1ccccc1 (stereo partly drawn) [Compound 28-exo]    5.1

---

Target: LRH-1 (Homo sapiens)
Construct: The transfected plasmids included full-length LRH-1 in a pCI vector; expressed in transfected cells; host or cells: HeLa
Experiment: Luciferase reporter assay (SHP-luc) in HeLa cells transfected with full-length LRH-1
Type: cell-based
Details: HeLa cells, SHP-luc reporter, 24 hours, 0.03-30 μM
Measured Property: EC50 (µM)

C=C(c1ccccc1)C12CCC(O)C1CC(CCCCCCO)=C2c1ccccc1 (stereo not drawn) [Compound 7e]    1
C=C(c1ccccc1)[C@@]12CC[C@@H](O)[C@@H]1CC(CCCCCCCC(=O)OC[C@H](COP(=O)([O-])OCC[N+](C)(C)C)OC(=O)CC)=C2c1ccccc1 [Compound 14d]    17
C=C(c1ccccc1)[C@@]12CC[C@@H](O)[C@@H]1CC(CCCCCCCCCOP(=O)([O-])OCC[N+](C)(C)C)=C2c1ccccc1 (relative stereo) [Compound 10g]    2
C=C(c1ccccc1)[C@@]12CC[C@@H](NC(C)=O)C1CC(CCCCCC)=C2c1ccccc1 (stereo partly drawn) [Compound 35-exo]    17
C=C(c1ccccc1)C12CCC(O)C1CC(CCCCCCCC(=O)N1CCC(COP(=O)([O-])OCC[N+](C)(C)C)C1)=C2c1ccccc1 (stereo not drawn) [Compound 13b]    12

---

Target: LRH-1 (Homo sapiens, UniProt O00482)
Construct: The transfected plasmids included full-length LRH-1 in a pCI vector; expressed in transfected cells; host or cells: HeLa
Sequence (O00482 whole entry): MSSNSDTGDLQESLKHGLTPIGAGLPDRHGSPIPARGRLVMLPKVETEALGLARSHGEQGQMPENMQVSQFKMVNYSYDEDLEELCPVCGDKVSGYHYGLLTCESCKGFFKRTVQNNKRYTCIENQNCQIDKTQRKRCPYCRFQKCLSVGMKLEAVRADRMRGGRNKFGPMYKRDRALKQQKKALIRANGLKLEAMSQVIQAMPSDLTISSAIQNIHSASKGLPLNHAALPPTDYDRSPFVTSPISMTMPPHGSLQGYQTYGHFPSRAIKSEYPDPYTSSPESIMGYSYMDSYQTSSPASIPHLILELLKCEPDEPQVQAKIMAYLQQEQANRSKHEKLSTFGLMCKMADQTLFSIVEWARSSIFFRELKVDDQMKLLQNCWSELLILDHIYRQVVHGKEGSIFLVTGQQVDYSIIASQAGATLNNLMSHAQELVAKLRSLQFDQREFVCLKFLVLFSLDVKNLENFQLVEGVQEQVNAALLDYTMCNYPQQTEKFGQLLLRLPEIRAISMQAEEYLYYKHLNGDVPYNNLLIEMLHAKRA
Experiment: Luciferase reporter assay (SHP-luc) in HeLa cells transfected with full-length LRH-1
Type: cell-based
Conditions: fold increase over baseline (DMSO-treated cells) relative to the fold increase induced by RJW100
Description: EC50 and Relative Activity values were calculated from luciferase reporter assays.
Sorting guide: entries reporting Relative Efficacy beneath 0.7 go in the true pile, the rest go in the false pile.

C=C(c1ccc(O)cc1)[C@@]12CC[C@@H](O)C1CC(CCCCCC)=C2c1ccccc1 (mixture of isomers) [Compound 23b]    false
C=C(c1ccccc1)[C@@]12CC[C@@H](OS(C)(=O)=O)C1CC(CCCCCC)=C2c1ccccc1 (stereo partly drawn) [Compound 30-exo]    true
C=C(c1ccccc1)[C@@]12CCC(O)C1CC(CCCCCCCCOP(=O)(OCC)OCC)=C2c1ccccc1 (stereo partly drawn) [Compound 53-endo]    false
C=C(c1ccc(Br)cc1)[C@@]12CC[C@@H](O)C1CC(CCCCCC)=C2c1ccccc1 (mixture of isomers) [Compound 23a]    true
C=C(c1ccccc1)C12CCC(O)C1CC(CCCCOP(=O)([O-])OCC[N+](C)(C)C)=C2c1ccccc1 (stereo not shown)    true
C=C(c1ccccc1)C12CCC(O)C1CC(CCCCCCCC(=O)N1CCC(COP(=O)([O-])OCC[N+](C)(C)C)C1)=C2c1ccccc1 (stereo not shown) [Compound 13b]    false

---

Molecular target: LRH-1 (Homo sapiens, UniProt O00482)
Construct: The transfected plasmids included full-length LRH-1 in a pCI vector; expressed in transfected cells; host or cells: HeLa
Assay: Luciferase reporter assay (SHP-luc) in HeLa cells transfected with full-length LRH-1
Format: cell-based
Settings: fold increase over baseline (DMSO-treated cells) relative to the fold increase induced by RJW100
Measured Property: Relative Efficacy

C=C(c1ccccc1)[C@@]12CC[C@@H](O)C1CC(CCCCCC)=C2c1cccc(N)c1 (mixture of isomers) [Compound 15g]    0.70
CCCCCCC1=C(c2ccccc2)[C@]2(C(C)c3ccccc3)CC[C@@H](O)C2C1 (stereo partly drawn) [Compound 39-exo]    0.06
C=C(c1ccccc1)C12CCC(O)C1CC(CCCCCCOP(=O)([O-])OCC[N+](C)(C)C)=C2c1ccccc1 (centres unmarked)    0.00
C=C(c1ccccc1)C12CCC(O)C1CC(CCCCCCCCOP(=O)([O-])OCC[N+](C)(C)C)=C2c1ccccc1 (centres unmarked)    1.12
C=C(c1ccccc1)C12CCC(O)C1CC(CCCCCCCCCCCO)=C2c1ccccc1 (centres unmarked) [Compound 12e]    0.87
C=C(c1ccccc1)[C@@]12CCC(O)C1CC(CCCCCCCCOP(=O)(OCC)OCC)=C2c1ccccc1 (stereo partly drawn) [Compound 53-exo]    0.37
C=C(c1ccccc1)[C@@]12CC[C@@H](O)C1CC(CCCCCC)=C2c1cc(O)cc(F)c1 (mixture of isomers) [Compound 18f]    2.8
C=C(c1ccccc1)[C@@]12CC[C@@H](O)C1CC(CCCCCC)=C2c1cc(N)ccc1C (mixture of isomers) [Compound 17g]    2.7
C=C(c1ccccc1)C12CCC(O)C1CC(CCCCCCO)=C2c1ccccc1 (centres unmarked)    1.74
C=C(c1ccccc1)[C@@]12CC[C@@H](N=[N+]=[N-])C1CC(CCCCCC)=C2c1ccccc1 (stereo partly drawn) [Compound 31-exo]    0.45
C=C(c1ccccc1)[C@@]12CC[C@@H](O)[C@@H]1CC(CCCCO)=C2c1ccccc1 (relative stereo)    0.83
C=C(c1ccccc1)[C@@]12CC[C@@H](O)[C@@H]1CC(CCCCCCCCCOP(=O)([O-])OCC[N+](C)(C)C)=C2c1ccccc1 (relative stereo) [Compound 10g]    2.74
C=C(c1ccccc1)C12CCC(O)C1CC(CCCCCCCCCCO)=C2c1ccccc1 (centres unmarked) [Compound 11e]    2.83
C=C(c1ccccc1)[C@@]12CC[C@@H](O)[C@@H]1CC(CCCCCCC(=O)O)=C2c1ccccc1 (relative stereo)    1.17

---

Molecular target: LRH-1 (Homo sapiens)
Construct: The transfected plasmids included full-length LRH-1 in a pCI vector; expressed in transfected cells; host or cells: HeLa
Assay: Luciferase reporter assay (SHP-luc) in HeLa cells transfected with full-length LRH-1
Assay type: cell-based
Details: fold increase over baseline (DMSO-treated cells) relative to the fold increase induced by RJW100
Measured Property: Relative Efficacy

CCCCCCC1=C(c2ccccc2)[C@]2(C(C)c3ccccc3)CC[C@H](O)C2C1 (stereo partly drawn) [Compound 39-endo]    0.13
C=C(c1ccccc1)C12CCC(O)C1CC(CCCCCCCOP(=O)([O-])OCC[N+](C)(C)C)=C2c1ccccc1 (stereo not shown)    0.81
C=C(c1ccccc1)C12CC[C@@H](O)C1CC(CCCCCC)=C2c1cccc(O)c1 (mixture of isomers) [Compound 15f]    0.85
C=C(c1ccccc1)[C@@]12CC[C@@H](N)C1CC(CCCCCC)=C2c1ccccc1 (stereo partly drawn) [Compound 33-exo]    0.56
